# Tested on: Streptococcus pyogenes
# method_summary: In vitro minimum inhibitory concentration against Streptococcus pyogenes penicillin sensitive
# Type: functional
value_kind: MIC (µg/mL)
Numbers only, in µg/mL.

These solved cases illustrate the format of a correct answer.
- O=C1O[C@@H](COc2ccon2)CN1c1ccc(C2=CCN(C(=S)CO)CC2)c(F)c1: 0.25
- CC(O)C(=O)N1CC=C(c2c(F)cc(N3C[C@H](COc4ccon4)OC3=O)cc2F)CC1 (single isomer, unassigned): 1
- O=C1O[C@@H](COc2ccncn2)CN1c1ccc(C2=CCOCC2)c(F)c1: 4
- O=C1O[C@@H](COc2cnsn2)CN1c1ccc(C2=CCOCC2)c(F)c1: 0.25
- O=C1O[C@@H](COc2ccon2)CN1c1ccc(C2=CCOCC2)c(F)c1: 0.5

Please give MIC for each item listed below.
1. O=C(C(CO)Cn1cncn1)N1CC=C(c2c(F)cc(N3C[C@H](COc4ccon4)OC3=O)cc2F)CC1 (stereo not given in full)
2. O=C(CO)N1CC=C(c2ccc(N3C[C@H](COc4ccon4)OC3=O)cc2F)CC1
3. O=C(OC[C@@H](O)CO)N1CC=C(c2ccc(N3C[C@H](COc4ccon4)OC3=O)cc2F)CC1
4. O=C(C(CO)Cn1ccnc1)N1CC=C(c2c(F)cc(N3C[C@H](COc4ccon4)OC3=O)cc2F)CC1 (stereo not given in full)
5. O=C1O[C@@H](COc2ncccn2)CN1c1ccc(C2=CCOCC2)c(F)c1

Found:
1
0.5
0.5
1
32

---

Please respond with reported log10 MIC for every item in the list.
# Test system: Streptococcus pyogenes
# method_summary: In vitro minimum inhibitory concentration against Streptococcus pyogenes penicillin sensitive
# Type: functional
# log10 transformed; quantity=MIC; unit=µg/mL

These solved cases illustrate the format of a correct answer.
• O=C1O[C@@H](COc2ccon2)CN1c1ccc(C2=CCN(CCO)CC2)c(F)c1 = 0.30
• O=C([C@H](O)CO)N1CC=C(c2c(F)cc(N3C[C@H](COc4ccon4)OC3=O)cc2F)CC1 = -0.60
• O=C([C@@H](O)CO)N1CC=C(c2c(F)cc(N3C[C@H](CO)OC3=O)cc2F)CC1 = -0.30
• C[C@H](O)C(=O)N1CC=C(c2c(F)cc(N3C[C@H](COc4ccon4)OC3=O)cc2F)CC1 = 0.00
• Cc1no[n+]([O-])c1OC[C@H]1CN(c2ccc(C3=CCOCC3)c(F)c2)C(=O)O1 = 0.60
• Cc1nnc(OC[C@H]2CN(c3ccc(C4=CCOCC4)c(F)c3)C(=O)O2)o1 = 0.90

List reported log10 MIC for each of these molecules:
1. COC(=O)c1cc(OC[C@H]2CN(c3ccc(C4=CCOCC4)c(F)c3)C(=O)O2)no1
2. C[C@H](O)C(=O)N1CC=C(c2ccc(N3C[C@H](COc4cnsn4)OC3=O)cc2F)CC1

Found:
1.20
0.00

---

Answer each item with its documented log10 MIC.
# Test system: Streptococcus pyogenes
# method_summary: In vitro minimum inhibitory concentration against Streptococcus pyogenes penicillin sensitive
# Assay type: functional
Answers are given as log10 of MIC in µg/mL.

Completed entries (count: 5):
* O=C1O[C@@H](COc2cccnc2)CN1c1ccc(C2=CCOCC2)c(F)c1 | 0.90
* CC(=O)NC[C@H]1CN(c2ccc(C3=CCOCC3)c(F)c2)C(=O)O1 | -0.89
* O=C(CO)N1CC=C(c2ccc(N3C[C@H](COc4cnsn4)OC3=O)cc2F)CC1 | -0.60
* CC(=O)NC[C@H]1CN(c2ccc(N3CCOCC3)c(F)c2)C(=O)O1 [LINEZOLID] | 0.00
* O=C(CO)N1CC=C(c2c(F)cc(N3C[C@H](COc4cnsn4)OC3=O)cc2F)CC1 | -0.60

Please supply log10 MIC for each of the following items, keeping them in order.
1. O=C1O[C@@H](Cn2ccccc2=O)CN1c1ccc(C2=CCOCC2)c(F)c1
2. Cc1ccnc(OC[C@H]2CN(c3ccc(C4=CCOCC4)c(F)c3)C(=O)O2)c1
3. O=C([C@@H](O)CO)N1CC=C(c2ccc(N3C[C@H](COc4cnsn4)OC3=O)cc2F)CC1
4. CC(=O)N1CC=C(c2ccc(N3C[C@H](COc4ccon4)OC3=O)cc2F)CC1
5. O=C([C@@H](O)CO)N1CC=C(c2ccc(N3C[C@H](COc4ccon4)OC3=O)cc2F)CC1
6. CN1CC=C(c2c(F)cc(N3C[C@H](COc4ccon4)OC3=O)cc2F)CC1
7. CS(=O)(=O)c1ccc(N2C[C@H](COc3nccs3)OC2=O)cc1F
8. O=C1O[C@@H](COc2ccccn2)CN1c1ccc(C2=CCOCC2)c(F)c1

Found:
1: 1.51; 2: 0.60; 3: -0.89; 4: 0.00; 5: -0.30; 6: 0.00; 7: 1.20; 8: 0.30

Need log10 MIC for each of these molecules.
1. Cc1cccnc1OC[C@H]1CN(c2ccc(C3=CCOCC3)c(F)c2)C(=O)O1
2. O=C1O[C@@H](COc2ccncc2)CN1c1ccc(C2=CCOCC2)c(F)c1
3. CS(=O)(=O)C[C@@H](O)C(=O)N1CC=C(c2c(F)cc(N3C[C@H](COc4ccon4)OC3=O)cc2F)CC1

Found:
1. 0.90
2. 1.81
3. -0.30

Give log10 MIC for all molecules that follow.
1. O=C1O[C@@H](COc2ccsn2)CN1c1ccc(C2=CCOCC2)c(F)c1
2. N#CCCS(=O)(=O)C[C@H](O)C(=O)N1CC=C(c2c(F)cc(N3C[C@H](COc4ccon4)OC3=O)cc2F)CC1
3. Cc1cc(OC[C@H]2CN(c3ccc(C4=CCOCC4)c(F)c3)C(=O)O2)no1

Found:
[-0.30, -0.30, 0.60]

---

I'd appreciate it if you could supply Activity values for the items below.
# Tested on: Staphylococcus aureus
# method_summary: In vivo antibacterial activity against Staphylococcus aureus after intravenous administration (10 mg/kg) in mice using (MTT) mouse thigh test

Some entries whose results are on file:
- O=C([C@@H](O)CO)N1CC=C(c2ccc(N3C[C@H](COc4ccon4)OC3=O)cc2F)CC1: 1.04
- O=C1O[C@@H](COc2ccccn2)CN1c1ccc(C2=CCOCC2)c(F)c1: 0.15
- O=C([C@@H](O)CS(=O)(=O)CCO)N1CC=C(c2c(F)cc(N3C[C@H](COc4ccon4)OC3=O)cc2F)CC1: 0.32
- C[C@H](O)C(=O)N1CC=C(c2c(F)cc(N3C[C@H](COc4ccon4)OC3=O)cc2F)CC1: 1.16
- O=C1O[C@@H](COc2cnsn2)CN1c1ccc(C2=CCOCC2)c(F)c1: 0.45

Give Activity for each listed item.
1. CC(=O)NC[C@H]1CN(c2ccc(C3=CCOCC3)c(F)c2)C(=O)O1
2. CC(=O)N1CC=C(c2ccc(N3C[C@H](COc4ccon4)OC3=O)cc2F)CC1
3. O=C1O[C@@H](COc2ccon2)CN1c1cc(F)c(C2=CCN(Cc3nccs3)CC2)c(F)c1
4. CC(O)C(=O)N1CC=C(c2c(F)cc(N3C[C@H](COc4ccon4)OC3=O)cc2F)CC1 (single isomer, unassigned)
5. O=C(C(CO)Cn1cncn1)N1CC=C(c2c(F)cc(N3C[C@H](COc4ccon4)OC3=O)cc2F)CC1 (stereo partly drawn)
6. O=C1O[C@@H](COc2ccsn2)CN1c1ccc(C2=CCOCC2)c(F)c1
7. Cc1cc(OC[C@H]2CN(c3ccc(C4=CCOCC4)c(F)c3)C(=O)O2)no1

Found:
1.34
0.81
0.28
1.02
0.5
0.21
-0.45

Would you mind listing Activity for each of the following compounds?
1. O=C(CO)N1CC=C(c2c(F)cc(N3C[C@H](COc4cnsn4)OC3=O)cc2F)CC1
2. CS(=O)(=O)C[C@@H](O)C(=O)N1CC=C(c2c(F)cc(N3C[C@H](COc4ccon4)OC3=O)cc2F)CC1
3. O=C1O[C@@H](COc2ccon2)CN1c1ccc(C2=CCN(C(=S)CO)CC2)c(F)c1
4. O=C(OC[C@@H](O)CO)N1CC=C(c2ccc(N3C[C@H](COc4ccon4)OC3=O)cc2F)CC1
5. O=C([C@@H](O)CO)N1CC=C(c2ccc(N3C[C@H](COc4cnsn4)OC3=O)cc2F)CC1
6. O=C(CO)N1CC=C(c2ccc(N3C[C@H](COc4ccon4)OC3=O)cc2F)CC1

Found:
1. 1.72
2. 1.42
3. 0.07
4. 0.48
5. 1.11
6. 1.2

---

# System: Streptococcus pyogenes
# method_summary: In vitro minimum inhibitory concentration against Streptococcus pyogenes penicillin sensitive
# Assay type: functional
value_kind: MIC (µg/mL)
Give bare numbers, in µg/mL.

- O=CN1CC=C(c2c(F)cc(N3C[C@H](COc4ccon4)OC3=O)cc2F)CC1: 0.5
- O=C([C@@H](O)CS(=O)(=O)CCO)N1CC=C(c2c(F)cc(N3C[C@H](COc4ccon4)OC3=O)cc2F)CC1: 0.25
- O=C1O[C@@H](COc2cnccn2)CN1c1ccc(C2=CCOCC2)c(F)c1: 1

Answer for every listed entry: what is its MIC? The entries follow.
1. Cc1cc(OC[C@H]2CN(c3cc(F)c(C4=CCN(C(=O)[C@@H](O)CO)CC4)c(F)c3)C(=O)O2)on1
2. O=C1O[C@@H](COc2cccnn2)CN1c1ccc(C2=CCOCC2)c(F)c1

Found:
1: 2; 2: 2
